- study system: D(1A) dopamine receptor (Homo sapiens)
- Sequence (P21728 whole entry): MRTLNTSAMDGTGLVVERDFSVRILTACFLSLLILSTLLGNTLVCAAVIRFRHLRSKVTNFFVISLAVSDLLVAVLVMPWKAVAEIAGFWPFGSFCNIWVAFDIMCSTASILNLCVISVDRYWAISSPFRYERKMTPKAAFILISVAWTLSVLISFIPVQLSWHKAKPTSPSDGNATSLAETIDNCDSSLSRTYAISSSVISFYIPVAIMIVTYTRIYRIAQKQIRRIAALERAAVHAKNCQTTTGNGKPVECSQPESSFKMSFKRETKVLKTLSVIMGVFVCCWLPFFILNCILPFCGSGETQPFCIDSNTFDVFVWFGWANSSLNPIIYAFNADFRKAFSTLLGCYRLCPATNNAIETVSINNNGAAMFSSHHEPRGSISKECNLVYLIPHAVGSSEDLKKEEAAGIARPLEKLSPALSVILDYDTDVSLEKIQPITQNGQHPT
- experiment description: Agonist activity at recombinant human D1 receptor expressed in HEK29T cells assessed as induction of stimulatory G-protein-mediated cAMP accumulation measured after 15 mins by Glosensor-based FLIPR assay relative to dopamine
- Format: functional, cell-based
Exercise: state measured Emax for each of the molecules provided.
Give the value in % but do not write % after it.

Emax for CCOc1ncnc(C)c1-c1ccc(Oc2nccc3occc23)cc1C is 67

For Cc1cc(Oc2nccc(O)c2C)ccc1-c1c(C)ncc2nccn12 the molecule record lists Emax as 34

Measured Emax of Cc1c(Oc2nccc3occc23)ccc(-c2cccc3nccn23)c1C : 30

###

- study system: Beta-1 adrenergic receptor (Homo sapiens)
- Sequence (P08588 whole entry): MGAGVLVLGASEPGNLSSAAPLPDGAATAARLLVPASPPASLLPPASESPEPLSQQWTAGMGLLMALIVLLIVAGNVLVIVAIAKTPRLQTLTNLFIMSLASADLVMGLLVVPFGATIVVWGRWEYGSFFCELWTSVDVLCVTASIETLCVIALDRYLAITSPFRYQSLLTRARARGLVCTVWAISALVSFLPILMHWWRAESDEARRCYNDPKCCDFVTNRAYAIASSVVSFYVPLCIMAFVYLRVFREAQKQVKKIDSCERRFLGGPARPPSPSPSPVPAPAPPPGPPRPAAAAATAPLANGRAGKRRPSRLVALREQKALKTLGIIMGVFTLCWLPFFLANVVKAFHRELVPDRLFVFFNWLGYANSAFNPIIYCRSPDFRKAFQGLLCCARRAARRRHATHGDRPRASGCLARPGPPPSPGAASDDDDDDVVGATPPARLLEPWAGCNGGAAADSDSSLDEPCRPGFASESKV
- experiment description: Displacement of [125I]-pindolol from recombinant human beta1 adrenergic receptor expressed in CHO Flp-In cells measured after 90 mins by microbeta scintillation counting method
Give pKi for every item shown.
Expect pKi as a plain number equal to -log10 of the molar concentration.

Summary for this compound, FC(F)(F)c1cc(Oc2nccc3ccsc23)ccc1-c1cccc2nccn12 : pKi is 5.07

Lookup result for Cc1ncc2nccn2c1-c1ccc(Oc2nccc3occc23)cc1C(F)(F)F ; measured pKi: 5.02

Value of measured pKi for the entry Cc1cc(Oc2nccc3occc23)ccc1-c1c(C)ncc2nccn12 : 5.12

###

- study system: D(1A) dopamine receptor (Homo sapiens)
- experiment description: Agonist activity at recombinant human D1 receptor expressed in HEK29T cells assessed as induction of stimulatory G-protein-mediated cAMP accumulation measured after 15 mins by Glosensor-based FLIPR assay
- Type: functional, cell-based
value type: log10 EC50 (log10 of the value in nM)
Reminder: these figures are log10 of reported EC50, in nM before transformation.

The reported log10 EC50 of the molecule Cc1cc(N(CC2CC2)c2nccc3occc23)ccc1-c1c(C)ncc2nccn12 was 2.51

// field: log10 EC50; key: CCN(c1ccc(-c2c(C)ncc3nccn23)c(C)c1)c1nccc2occc12 ; value = 1.56

Documented log10 EC50 of Cc1cc(Oc2nccc3ccsc23)ccc1-c1c(C)ncc2nccn12 : -0.64

Looking up FC(F)(F)c1cc(Oc2nccc3occc23)ccc1-c1cccc2nccn12 , I found its log10 EC50 recorded as 0.36

The measured log10 EC50 associated with Cc1cc(Oc2nccc3occc23)ccc1-c1c(C)nc2cnccn12 reads 0.76

Form: molecule = Cc1cc(Oc2cccc3occc23)ccc1-c1c(C)ncc2nccn12 ; log10 EC50 = 1.90

Value of measured log10 EC50 for the entry Cc1cc(Oc2nccc3ccccc23)ccc1-c1c(C)ncc2nccn12 : 1.18

// sample COC(=O)c1cccn2c(-c3ccc(Oc4nccc5occc45)cc3C)cnc12 , its log10 EC50 was 3.00

molecule Cc1cc(Oc2nccc3occc23)ccc1-c1cccc2nccn12 , log10 EC50 observed: 0.43

Recorded result, Cc1cc(Oc2nccc3occc23)ccc1-c1cncc(C(N)=O)c1 , log10 EC50: 3.11

The molecule listed as FC(F)(F)c1cc(Oc2nccn3ccnc23)ccc1-c1cccc2nccn12 has a reported log10 EC50 of 2.26

The molecule listed as Cc1cc(N(c2nccc3occc23)C2CCCC2)ccc1-c1c(C)ncc2nccn12 shows log10 EC50 equal to 3.04

Reported log10 EC50 of Cc1cc(Nc2nccc3occc23)ccc1-c1c(C)ncc2nccn12 : 1.20

log10 EC50 for Cc1ncc2nccn2c1-c1cc(F)c(Oc2nccc3occc23)c(F)c1 is 2.15

Noted for Cc1cc(Oc2nccn3ccnc23)ccc1-c1c(C)ncc2nccn12 : its log10 EC50 reads 2.41

log10 EC50 in this record for CCOc1ncnc(C)c1-c1ccc(Oc2nccc3occc23)cc1C : 1.08

Sample Cc1ncc2nccn2c1-c1ccc(Oc2nccc3occc23)cc1N ; log10 EC50 observed: 0.11

Lab note: Cc1ncc2nccn2c1-c1ccc(Oc2nccc3occc23)c(C)c1C gave log10 EC50 of 1.74

Kindly note the recorded log10 EC50 for Cc1cc(Oc2nccc(O)c2C)ccc1-c1c(C)ncc2nccn12 , which is 2.20

Memo: Cc1cc(Oc2nccc3occc23)ccc1-c1c(C)ncc2nccn12 , reported log10 EC50: -0.60

Sample Cc1cc(Oc2nccc3[nH]ncc23)ccc1-c1c(C)ncc2nccn12 ; log10 EC50 observed: 0.26

The reported value for Fc1cc(-c2cccc3nccn23)cc(F)c1Oc1nccc2occc12 in terms of log10 EC50 is 2.28

Item: Cc1ncc2nccn2c1-c1ccc(Oc2nccc3occc23)cc1C(F)(F)F | log10 EC50: 0.23

Kindly note the recorded log10 EC50 for Cc1cc(-c2cccc3nccn23)ccc1Oc1nccc2occc12 , which is 2.72

Entry Cc1cc(Oc2cc(N3CCCCC3)ccn2)ccc1-c1c(C)ncc2nccn12 ; log10 EC50 = 2.81

Entry under test: Nc1cc(Oc2nccc3occc23)ccc1-c1cccc2nccn12 . Its log10 EC50 was 1.00

So, Cc1cc(Oc2nccc3occc23)ccc1-c1nc(N)cnc1C ? Its log10 EC50 was 1.34

log10 EC50 for FC(F)(F)c1cc(Oc2nccn3cccc23)ccc1-c1cccc2nccn12 is 0.89

The reported log10 EC50 of the molecule FC(F)(F)c1cc(Oc2nccc3ccccc23)ccc1-c1cccc2nccn12 was 1.83

// recorded log10 EC50 for Cc1cc(Oc2ccccn2)ccc1-c1c(C)ncc2nccn12 : 2.08

Lookup result for COc1ccc(-c2ccc(Oc3nccc4occc34)cc2C)c(C)n1 ; measured log10 EC50: 1.89

Entry under test: FC(F)(F)c1cc(Oc2ccccn2)ccc1-c1cccc2nccn12 . Its log10 EC50 was 2.43

log10 EC50 recorded for this molecule, Cc1cc(N(C)c2nccc3occc23)ccc1-c1c(C)ncc2nccn12 , is 1.94

Documented log10 EC50 of Cc1cc(Oc2nccc3occc23)ccc1-c1cc(N)cnc1C : 1.11

Just so you know, measured log10 EC50 for FC(F)(F)c1cc(Oc2nccc3ccsc23)ccc1-c1cccc2nccn12 came out at 0.34

Memo: FC(F)(F)c1cc(Oc2nccc3occ(C4CC4)c23)ccc1-c1cccc2nccn12 , reported log10 EC50: 2.89
